Below, each entry is listed alongside its reported EC50.
PROCEDURE TEXT: NIH-3T3 fibroblast cytotoxicity, dose response, cytotoxicity control, cell-based, fluorescence, Alamar Blue, secondary assay (AID 2327);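 also: NIH-3T3 mouse fibroblasts cultured with fluconazole at 8 µg/mL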
Format: functional
Calls of active or inactive are those of the source. Rule as the data show it: actives have a measured EC50 and inactives only a lower limit.

{"MOLECULE": "O=C(CCCCCN1C(=O)c2cccc3cccc(c23)C1=O)N1CCOCC1", "EC50": "22.3 µM (active)"}
{"MOLECULE": "CCc1ccc(OCC(=O)NNC(=S)NC(=O)C2CCCCC2)c(Br)c1", "EC50": "> 150 µM (inactive)"}
{"MOLECULE": "Cc1cccc(/C=C/C(=O)c2cc(Br)ccc(=O)c2O)c1", "EC50": "42.4 µM (inconclusive)"}
{"MOLECULE": "O=C(Nc1cccc(-c2cn3c(n2)SCC3)c1)c1ccc(Br)o1", "EC50": "> 150 µM (inconclusive)"}
{"MOLECULE": "COc1ccc(Cl)cc1C(Nc1cccnc1)c1ccc2cccnc2c1O (stereo not given)", "EC50": "33.6 µM (active)"}

* * *

PROCEDURE TEXT: fluconazole-exposed Candida albicans growth modulators – fluorescence, retest, confirmation (AID 2467)
Assay type: functional, cell-based
Active and inactive are the calls of the source. No stated cut-off is given here; in the data, actives have a measured EC50 and inactives only a lower limit.

{"SMILES": "O=C(N/N=C/c1cc([N+](=O)[O-])ccc1O)c1ccc(COc2ccc3c(c2)CCC3)o1", "EC50": "1.19 µM (active)"}
{"SMILES": "COc1ccc(O)c(/C=N/NC(=O)c2ccc(CSc3nc(C)cc(C)n3)cc2)c1", "EC50": "> 38 µM (not active)"}
{"SMILES": "O=C(CCCCCN1C(=O)c2cccc3cccc(c23)C1=O)N1CCOCC1", "EC50": "> 38 µM (not active)"}
{"SMILES": "COCc1nnc(NC(=O)c2ccc(S(=O)(=O)N3CCCc4ccccc43)cc2)o1", "EC50": "2.96 µM (active)"}
{"SMILES": "CCCC[n+]1c2ccccc2cc2ccccc21", "EC50": "0.604 µM (active)"}
{"SMILES": "COc1ccc(-c2nnc(NC(=O)c3ccc(S(=O)(=O)N4CCCc5ccccc54)cc3)o2)cc1", "EC50": "0.326 µM (active)"}
{"SMILES": "Oc1ccc(Br)cc1/C=N/Nc1ccccn1", "EC50": "1.51 µM (active)"}
{"SMILES": "Cc1cccc(/C=C/C(=O)c2cc(Br)ccc(=O)c2O)c1", "EC50": "1.11 µM (active)"}

* * *

STUDY TARGET: Heat shock factor protein 1 (Mus musculus, UniProt P38532)
Sequence (P38532 whole entry): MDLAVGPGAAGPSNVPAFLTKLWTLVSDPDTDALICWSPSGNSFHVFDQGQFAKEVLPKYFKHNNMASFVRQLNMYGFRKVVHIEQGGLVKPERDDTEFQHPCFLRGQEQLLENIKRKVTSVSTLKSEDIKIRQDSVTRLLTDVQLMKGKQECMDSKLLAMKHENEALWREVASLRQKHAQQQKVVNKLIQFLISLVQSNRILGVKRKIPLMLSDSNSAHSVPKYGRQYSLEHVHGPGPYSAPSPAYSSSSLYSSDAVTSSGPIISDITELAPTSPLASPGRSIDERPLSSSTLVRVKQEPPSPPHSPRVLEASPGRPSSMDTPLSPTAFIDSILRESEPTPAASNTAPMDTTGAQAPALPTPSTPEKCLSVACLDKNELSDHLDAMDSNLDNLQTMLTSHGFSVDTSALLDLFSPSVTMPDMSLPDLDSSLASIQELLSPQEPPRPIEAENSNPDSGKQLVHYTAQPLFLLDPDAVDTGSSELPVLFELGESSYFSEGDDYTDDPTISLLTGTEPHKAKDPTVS
PROCEDURE TEXT: enhancement of HSF1-driven luciferase signal – cell-based, NIH3T3, luminescence, dose retest, confirmation (AID 435004);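 also: stress induced by proteasome inhibitor MG132 added 30 min after compound; luciferase reporter driven by HSF1 response element in NIH3T3 cells; actives raise luminescence as potentiators of the MG132 stress response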
Type: functional
The source made the active and inactive calls. Cut-off read from the data, not from the text of the source: actives have a measured EC50 and inactives only a lower limit.
Outcome codes: active, inactive

{"COMPOUND": "Cc1cccc(N(C(=O)c2ccc(CN3CCOCC3)o2)C(C(=O)NC(C)(C)C)c2ccc(F)cc2)c1 (stereo unspecified)", "CAT": "inactive"}
{"COMPOUND": "O=C(COC(=O)C1CC2C=CC1C2)Nc1ccc2c(c1)OC(F)(F)O2 (stereo unspecified)", "CAT": "inactive"}
{"COMPOUND": "COCc1cc(O)nc(SCCS(=O)(=O)c2ccc(Cl)cc2Cl)n1", "CAT": "inactive"}
{"COMPOUND": "CCn1c2ccccc2c2cc(NC(=O)CSc3nnc(-c4cccc(OC)c4)n3N)ccc21", "CAT": "active"}
{"COMPOUND": "O=C(COc1ccc(Cl)cc1)NCCCNC(=O)c1ccccn1", "CAT": "inactive"}
{"COMPOUND": "Cc1ccc(NC(=O)C(=Cc2ccc(C(=O)O)cc2)C(=O)Nc2ccc(C)cc2C)c(C)c1", "CAT": "active"}
{"COMPOUND": "O[C@@H]1C2CCCC1[C@]1(O)CCCCC1C2 (stereo partly specified)", "CAT": "inactive"}
{"COMPOUND": "Cc1cc(C)c2cc(CN(Cc3ccco3)C(S)=NCC3CCCO3)c(O)nc2c1 (stereo unspecified)", "CAT": "inactive"}
{"COMPOUND": "CCOC(=O)c1ccc(/N=c2\\sc(C(=O)OC)cc(=O)n2Cc2ccco2)cc1", "CAT": "active"}
{"COMPOUND": "CNC(=O)N(O)C1N(/N=C/c2c(F)cccc2Cl)C(=S)SC1(C)C (stereo unspecified)", "CAT": "inactive"}
{"COMPOUND": "CCOC(=O)C1=C(c2ccccc2)NC(SC)=C(C#N)C1c1ccco1 (stereo unspecified)", "CAT": "inactive"}
{"COMPOUND": "CCOC(=O)C(=O)/C(C#N)=C/Nc1ccccc1", "CAT": "active"}
{"COMPOUND": "COC(=O)c1ccc(CSc2ncnc3c2oc2ccccc23)o1", "CAT": "inactive"}
{"COMPOUND": "COC(=O)CCC(=O)C1=C(N)CC(C)(C)CC1=O", "CAT": "inactive"}
{"COMPOUND": "Cc1ccc(S(=O)(=O)NC2c3cccc4cccc(c34)C2Sc2nncn2C)cc1 (stereo unspecified)", "CAT": "inactive"}
